experimental target: T1, Human CD137 ECD (human)
T1 construct: entry includes C-terminal His-tag and biotin acceptor peptide; also called human CD137 extracellular domain; 4-1BB
T1 sequence (chain, as listed by the source limits assumed): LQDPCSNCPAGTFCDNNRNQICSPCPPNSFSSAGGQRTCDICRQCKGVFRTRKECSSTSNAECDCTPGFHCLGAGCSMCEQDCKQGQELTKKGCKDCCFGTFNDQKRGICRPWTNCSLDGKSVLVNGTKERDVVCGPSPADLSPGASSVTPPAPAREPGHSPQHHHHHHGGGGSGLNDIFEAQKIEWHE
measurement notes: Biacore SPR, vs parent H183/L072
Measured fold change of affinity, listed per entry for reference.
Report as a plain number; the unit fold is understood.

Example cases with answers are listed next.
H183/L072 VL L27bP (antibody, name in Kabat numbering, V domains shown, Dual-Ig) VH: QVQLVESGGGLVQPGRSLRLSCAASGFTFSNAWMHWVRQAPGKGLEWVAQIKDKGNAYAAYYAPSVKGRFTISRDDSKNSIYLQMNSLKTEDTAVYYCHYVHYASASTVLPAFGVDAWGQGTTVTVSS VL: DIVMTQSPLSLPVTPGEPASISCQASQEPVHMNRNTYLHWYQQKPGQAPRLLIYKVSNRFPGVPDRFSGSGSGTDFTLKISRVEAEDVGVYYCAQGTSVPFTFGQGTKLEIK :: 0.8
H183/L072 VL P56A (antibody, name in Kabat numbering, V domains shown, Dual-Ig) VH: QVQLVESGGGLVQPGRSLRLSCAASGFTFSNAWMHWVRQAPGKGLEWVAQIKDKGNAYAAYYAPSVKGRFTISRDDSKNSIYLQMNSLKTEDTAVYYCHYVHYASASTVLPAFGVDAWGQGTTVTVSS VL: DIVMTQSPLSLPVTPGEPASISCQASQELVHMNRNTYLHWYQQKPGQAPRLLIYKVSNRFAGVPDRFSGSGSGTDFTLKISRVEAEDVGVYYCAQGTSVPFTFGQGTKLEIK :: 0.1

Next:
input: Which fold change of affinity is reported for this binder? H183/L072 VL M27eN (antibody, name in Kabat numbering, V domains shown, Dual-Ig) VH: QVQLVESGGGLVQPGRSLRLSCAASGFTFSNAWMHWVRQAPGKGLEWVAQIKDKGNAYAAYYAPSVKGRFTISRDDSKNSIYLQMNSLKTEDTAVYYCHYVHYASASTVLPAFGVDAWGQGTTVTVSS VL: DIVMTQSPLSLPVTPGEPASISCQASQELVHNNRNTYLHWYQQKPGQAPRLLIYKVSNRFPGVPDRFSGSGSGTDFTLKISRVEAEDVGVYYCAQGTSVPFTFGQGTKLEIK
output: 0.8
